Molecular target: Fc-fusion protein of human PSMA (hPSMA-Fc) (Homo sapiens, UniProt Q04609)
Construct: purchased Acro Biosystems PSA-H5264
Sequence (Q04609 44-750 limits assumed): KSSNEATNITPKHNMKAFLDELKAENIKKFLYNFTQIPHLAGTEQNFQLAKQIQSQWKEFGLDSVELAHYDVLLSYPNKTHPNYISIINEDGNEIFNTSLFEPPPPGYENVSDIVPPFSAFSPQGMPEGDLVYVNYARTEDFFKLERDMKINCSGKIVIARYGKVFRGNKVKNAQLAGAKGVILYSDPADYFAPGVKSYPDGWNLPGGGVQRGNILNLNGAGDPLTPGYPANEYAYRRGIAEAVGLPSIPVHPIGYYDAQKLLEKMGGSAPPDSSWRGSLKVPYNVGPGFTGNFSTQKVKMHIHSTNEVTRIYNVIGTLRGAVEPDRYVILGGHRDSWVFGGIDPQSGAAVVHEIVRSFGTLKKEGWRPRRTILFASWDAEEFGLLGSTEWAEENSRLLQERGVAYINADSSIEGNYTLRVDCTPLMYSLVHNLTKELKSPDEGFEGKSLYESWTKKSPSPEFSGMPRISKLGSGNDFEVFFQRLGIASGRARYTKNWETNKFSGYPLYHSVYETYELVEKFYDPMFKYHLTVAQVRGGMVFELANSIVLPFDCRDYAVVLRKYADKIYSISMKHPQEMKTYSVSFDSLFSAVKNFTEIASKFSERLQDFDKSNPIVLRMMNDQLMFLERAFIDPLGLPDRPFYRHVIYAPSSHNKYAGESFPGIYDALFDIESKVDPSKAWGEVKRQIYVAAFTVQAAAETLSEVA
Assay: Surface plasmon resonance assay (Biacore T200, single cycle kinetic)
Type: binding
Details: SPR, hPSMA-Fc, single cycle kinetic, 25° C.; category; read-out: pKD CAT (converted)
Numbered stars: 1 amine (or outer) side, 2 acyl side, 3 side chain; on linkers, the order of the positions; unused ones are H or OH. Bridge positions count the residues as written; N and C are the ends. Square brackets hold non-standard residues; d marks the D form. Peptide text beside a SMILES is read from it. * marks the point of attachment. DOTA = O=C(O)CN1CCN(CC(=O)O)CCN(CC(=O)*)CCN(CC(=O)O)CC1; Phe(4-Cl) = N[C@@H](Cc1ccc(Cl)cc1)C(=O)O; Arg(Me) = CNC(=N)NCCC[C@H](N)C(=O)O; Lys(Me2) = CN(C)CCCC[C@H](N)C(=O)O; X1 = O=C(CC1CCN([*:1])CC1)[*:2]; Cit = NC(=O)NCCC[C@H](N)C(=O)O; Tle = CC(C)(C)[C@H](N)C(=O)O; Propanoyl(3-OH) = O=C(CCO)*; Nle = CCCC[C@H](N)C(=O)O; Aib = CC(C)(N)C(=O)O; Guanidino = N=C(N)N*; βAla = NCCC(=O)O
reportedEndpoint: Kd

Some compounds with recorded Kd:
C[C@@H](O)[C@H](NC(=O)[C@@H](NC(=O)[C@@H]1CSSC[C@H](NC(=O)[C@H](Cc2ccc(Cl)cc2)NC(=O)C(C)(C)NC(=O)CCO)C(=O)N[C@@H](CCCCN)C(=O)N[C@@H](CCCNC(=N)N)C(=O)NC(C)(C)C(=O)N[C@@H](CC(N)=O)C(=O)N1)C(C)(C)C)C(=O)N[C@H](CCCCNC(=O)CN1CCN(CC(=O)O)CCN(CC(=O)O)CCN(CC(=O)O)CC1)C(N)=O [PSM-0267] ({Propanoyl(3-OH)}-[Aib][Phe(4-Cl)]CKR[Aib]NC[Tle]T[dK](DOTA)-NH2; disulfide 3-8) ... < 12.6 nM
C[C@@H](O)[C@H](NC(=O)CN1CCN(CC(=O)O)CCN(CC(=O)O)CCN(CC(=O)O)CC1)C(=O)NC(C)(C)C(=O)N[C@@H](Cc1ccc(Cl)cc1)C(=O)N[C@H]1CSSC[C@@H](C(=O)N[C@H](C(=O)NCCC(N)=O)C(C)(C)C)NC(=O)[C@H](CC(N)=O)NC(=O)C(C)(C)NC(=O)[C@H](CCCNC(=N)N)NC(=O)[C@H](CCCCN)NC1=O [PSM-0216] ({DOTA}-T[Aib][Phe(4-Cl)]CKR[Aib]NC[Tle][βAla]-NH2; disulfide 4-9) ... < 12.6 nM
CCCC[C@@H]1NC(=O)[C@@H](NC(=O)[C@H](Cc2ccc(Cl)cc2)NC(=O)C(C)(C)NC(=O)[C@@H](NC(C)=O)[C@@H](C)O)CSSC[C@@H](C(=O)N[C@H](C(=O)N[C@H](C(N)=O)[C@@H](C)O)C(C)(C)C)NC(=O)[C@H](CC(N)=O)NC(=O)C(C)(C)NC(=O)[C@H](CCC(=O)NC(=N)N)NC1=O [PSM-0236] (Ac-T[Aib][Phe(4-Cl)]C[Nle]E(Guanidino)[Aib]NC[Tle]T-NH2; disulfide 4-9) ... < 12.6 nM
CNC(=N)NCCC[C@@H]1NC(=O)[C@H](CCCCN(C)C)NC(=O)[C@@H](NC(=O)[C@H](Cc2ccc(Cl)cc2)NC(=O)C(C)(C)NC(=O)[C@@H](NC(=O)CC2CCN(C(=O)CN3CCN(CC(=O)O)CCN(CC(=O)O)CCN(CC(=O)O)CC3)CC2)[C@@H](C)O)CSSC[C@@H](C(=O)N[C@H](C(=O)N[C@H](C(N)=O)[C@@H](C)O)C(C)(C)C)NC(=O)[C@H](CC(N)=O)NC(=O)C(C)(C)NC1=O [PSM-0203] ({DOTA}-[X1]T[Aib][Phe(4-Cl)]C[Lys(Me2)][Arg(Me)][Aib]NC[Tle]T-NH2; disulfide 5-10) ... < 12.6 nM

Query block: May I ask what Kd has been recorded for CC(=O)N[C@H](C(=O)NC(C)(C)C(=O)N[C@@H](Cc1ccccc1)C(=O)N[C@H]1CSSC[C@@H](C(=O)N[C@H](C(=O)N[C@H](C(=O)N2CCC(CC(=O)N[C@H](CCCCNC(=O)CN3CCN(CC(=O)O)CCN(CC(=O)O)CCN(CC(=O)O)CC3)C(N)=O)CC2)[C@@H](C)O)C(C)(C)C)NC(=O)[C@H](CC(N)=O)NC(=O)C(C)(C)NC(=O)[C@H](CCCNC(N)=O)NC(=O)[C@H](CCCCN)NC1=O)[C@@H](C)O [PSM-0252] (Ac-T[Aib]FCK[Cit][Aib]NC[Tle]T[X1][dK](DOTA)-NH2; disulfide 4-9) ?
Result block: > 501 nM
